# Tested on: SW1271 complex spheroids with HUVEC/MSC, growth, % test/control
# experiment-summary: Anticancer human tumor SW1271 cell line growth inhibition [AhR];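 note: spheroids exposed to agents for 7 days before readout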
# assay-context: curve of compound
assay-metric: IC50

Which measured IC50 value corresponds to Cn1ncnc1C1c2n[nH]c(=O)c3cc(F)cc(c23)NC1c1ccc(F)cc1 (stereo not drawn) ?
> 0.1 µM

# repeat for CC(C)c1c(-c2ccccc2)nc2c(C#N)c[nH]n2c1=O
> 10 µM

# repeat for CC1COCCN1c1cc(C2(S(C)(=N)=O)CC2)nc(-c2ccnc3[nH]ccc23)n1 (stereo not drawn)
> 10 µM

# repeat for Nc1ncn(C2CC(O)C(CO)O2)c(=O)n1 (stereo not drawn)
> 1 µM

# repeat for Nc1ncn(C2CC(O)C(CO)S2)c(=O)n1 (stereo not drawn)
> 0.3 µM

---

# Tested on: SW1271 complex spheroids with HUVEC/MSC, growth, % test/control
# experiment-summary: Anticancer human tumor SW1271 cell line growth inhibition [AhR];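 note: spheroids exposed to agents for 7 days before readout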
# assay-context: second compound 3.16 µM; first compound 10 µM; stronger effect = lower value
A collection of molecules and their measured viability, T/C
Numeric only. Scale: %

Which measured viability, T/C value corresponds to CC1(C)CCC(CN2CCN(c3ccc(C(=O)NS(=O)(=O)c4ccc(NCC5CCOCC5)c([N+](=O)[O-])c4)c(Oc4cnc5[nH]ccc5c4)c3)CC2)=C(c2ccc(Cl)cc2)C1 + Cc1ccccc1N=Nc1ccc(NC(=O)c2ccnn2C)c(C)c1 ?
112

Continuing:
Which measured viability, T/C value corresponds to NS(=O)(=O)OCC1CC(n2ccc3c(NC4CCc5ccccc54)ncnc32)CC1O (stereo unspecified) + CC(CO)NC(=O)c1cc(-c2ccc(Cl)cc2)nn(-c2cnn(C)c2)c1=O ?
59.3

# repeat for CC1(C)CCC(CN2CCN(c3ccc(C(=O)NS(=O)(=O)c4ccc(NCC5CCOCC5)c([N+](=O)[O-])c4)c(Oc4cnc5[nH]ccc5c4)c3)CC2)=C(c2ccc(Cl)cc2)C1 + CC(CO)NC(=O)c1cc(-c2ccc(Cl)cc2)nn(-c2cnn(C)c2)c1=O
88.6

# repeat for COc1cc(C2c3cc4c(cc3C(OC3OC5COC(C)OC5C(O)C3O)C3COC(=O)C23)OCO4)cc(OC)c1O (stereo unspecified) + Cc1ccccc1N=Nc1ccc(NC(=O)c2ccnn2C)c(C)c1
34

# repeat for O=C(C=Cc1cccc(S(=O)(=O)Nc2ccccc2)c1)NO + Cc1cncc(-c2nc(NCCc3c[nH]c4ccccc34)c3ncn(C(C)C)c3n2)c1
16.6

# repeat for Nc1ccn(C2OC(CO)C(O)C2(F)F)c(=O)n1 (stereo unspecified) + Cc1cncc(-c2nc(NCCc3c[nH]c4ccccc34)c3ncn(C(C)C)c3n2)c1
75.2

---

# Test system: SW1271 complex spheroids with HUVEC/MSC, growth, % test/control
# experiment-summary: Anticancer human tumor SW1271 cell line growth inhibition [AhR];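 note: spheroids exposed to agents for 7 days before readout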
# assay-context: second compound 0.1 µM; first compound 10 µM; stronger effect = lower value
assay-metric: viability, T/C (%)
Numeric only. Scale: %

Which measured viability, T/C value corresponds to CC1(C)CCC(CN2CCN(c3ccc(C(=O)NS(=O)(=O)c4ccc(NCC5CCOCC5)c([N+](=O)[O-])c4)c(Oc4cnc5[nH]ccc5c4)c3)CC2)=C(c2ccc(Cl)cc2)C1 + Cc1cncc(-c2nc(NCCc3c[nH]c4ccccc34)c3ncn(C(C)C)c3n2)c1 ?
95.7

Continuing:
Which measured viability, T/C value corresponds to Nc1ccn(C2OC(CO)C(O)C2(F)F)c(=O)n1 (stereo unspecified) + CC(CO)NC(=O)c1cc(-c2ccc(Cl)cc2)nn(-c2cnn(C)c2)c1=O ?
63.9

# repeat for NS(=O)(=O)OCC1CC(n2ccc3c(NC4CCc5ccccc54)ncnc32)CC1O (stereo unspecified) + Cc1cncc(-c2nc(NCCc3c[nH]c4ccccc34)c3ncn(C(C)C)c3n2)c1
71.8

---

# System: SW1271 complex spheroids with HUVEC/MSC, growth, % test/control
# experiment-summary: Anticancer human tumor SW1271 cell line growth inhibition [AhR];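 note: spheroids exposed to agents for 7 days before readout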
# assay-context: second compound 3.16 µM; first compound 0.1 µM; stronger effect = lower value
assay-metric: viability, T/C (%)
Numeric only. Scale: %

Study these solved cases before continuing.
Which measured viability, T/C value corresponds to O=C(c1cc(Cc2n[nH]c(=O)c3ccccc23)ccc1F)N1CCN(C(=O)C2CC2)CC1 + Cc1ccccc1N=Nc1ccc(NC(=O)c2ccnn2C)c(C)c1 ?
109

# repeat for CC1COCCN1c1cc(C2(S(C)(=N)=O)CC2)nc(-c2ccnc3[nH]ccc23)n1 (stereo not drawn) + CC(CO)NC(=O)c1cc(-c2ccc(Cl)cc2)nn(-c2cnn(C)c2)c1=O
83.4

In the following, a different compound is considered.
Which measured viability, T/C value corresponds to COc1cc(C2c3cc4c(cc3C(OC3OC5COC(C)OC5C(O)C3O)C3COC(=O)C23)OCO4)cc(OC)c1O (stereo not drawn) + CC(CO)NC(=O)c1cc(-c2ccc(Cl)cc2)nn(-c2cnn(C)c2)c1=O ?
68

---

# Test system: SW1271 complex spheroids with HUVEC/MSC, growth, % test/control
# experiment-summary: Anticancer human tumor SW1271 cell line growth inhibition [AhR];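 note: spheroids exposed to agents for 7 days before readout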
# assay-context: curve of first compound; second compound 10 µM
A collection of compounds and their measured IC50
Numeric only. Scale: µM

Which measured IC50 value corresponds to COc1ccc([C@@H](O)c2cc(-c3ncnc4cc(N5CCOCC5)ccc34)c(F)cc2Cl)nn1 + CC(CO)NC(=O)c1cc(-c2ccc(Cl)cc2)nn(-c2cnn(C)c2)c1=O ?
0.931

In the following, a different compound is considered.
Which measured IC50 value corresponds to Nc1ccccc1NC(=O)c1ccc(CNC(=O)OCc2cccnc2)cc1 + Cc1ccccc1N=Nc1ccc(NC(=O)c2ccnn2C)c(C)c1 ?
1.46

---

# System: SW1271 complex spheroids with HUVEC/MSC, growth, % test/control
# experiment-summary: Anticancer human tumor SW1271 cell line growth inhibition [AhR];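 note: spheroids exposed to agents for 7 days before readout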
# assay-context: second compound 10 µM; first compound 0.1 µM; stronger effect = lower value
assay-metric: viability, T/C

Study these solved cases before continuing.
Which measured viability, T/C value corresponds to CC(C)c1c(-c2ccccc2)nc2c(C#N)c[nH]n2c1=O + Cc1ccccc1N=Nc1ccc(NC(=O)c2ccnn2C)c(C)c1 ?
88.5%

# repeat for CC1(C)CCC(CN2CCN(c3ccc(C(=O)NS(=O)(=O)c4ccc(NCC5CCOCC5)c([N+](=O)[O-])c4)c(Oc4cnc5[nH]ccc5c4)c3)CC2)=C(c2ccc(Cl)cc2)C1 + CC(CO)NC(=O)c1cc(-c2ccc(Cl)cc2)nn(-c2cnn(C)c2)c1=O
69.3%

# repeat for Nc1ccn(C2OC(CO)C(O)C2(F)F)c(=O)n1 (stereo unspecified) + Cc1ccccc1N=Nc1ccc(NC(=O)c2ccnn2C)c(C)c1
57.3%

# repeat for O=C(c1cc(Cc2n[nH]c(=O)c3ccccc23)ccc1F)N1CCN(C(=O)C2CC2)CC1 + Cc1cncc(-c2nc(NCCc3c[nH]c4ccccc34)c3ncn(C(C)C)c3n2)c1
46.4%

# repeat for NS(=O)(=O)OCC1CC(n2ccc3c(NC4CCc5ccccc54)ncnc32)CC1O (stereo unspecified) + CC(CO)NC(=O)c1cc(-c2ccc(Cl)cc2)nn(-c2cnn(C)c2)c1=O
104%

In the following, a different compound is considered.
Which measured viability, T/C value corresponds to COc1cc(C2c3cc4c(cc3C(OC3OC5COC(C)OC5C(O)C3O)C3COC(=O)C23)OCO4)cc(OC)c1O (stereo unspecified) + Cc1ccccc1N=Nc1ccc(NC(=O)c2ccnn2C)c(C)c1 ?
61.7%

---

# Tested on: SW1271 complex spheroids with HUVEC/MSC, growth, % test/control
# experiment-summary: Anticancer human tumor SW1271 cell line growth inhibition [AhR];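 note: spheroids exposed to agents for 7 days before readout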
# assay-context: second compound 0.316 µM; first compound 0.000316 µM; stronger effect = lower value
assay-metric: viability, T/C

Which measured viability, T/C value corresponds to Cn1ncnc1C1c2n[nH]c(=O)c3cc(F)cc(c23)NC1c1ccc(F)cc1 (stereo not drawn) + Cc1cncc(-c2nc(NCCc3c[nH]c4ccccc34)c3ncn(C(C)C)c3n2)c1 ?
96.2%

# repeat for CC[C@@]1(O)C(=O)OCc2c1cc1n(c2=O)Cc2cc3c(CN(C)C)c(O)ccc3nc2-1 + Cc1ccccc1N=Nc1ccc(NC(=O)c2ccnn2C)c(C)c1
89.4%

# repeat for Cn1ncnc1C1c2n[nH]c(=O)c3cc(F)cc(c23)NC1c1ccc(F)cc1 (stereo not drawn) + Cc1ccccc1N=Nc1ccc(NC(=O)c2ccnn2C)c(C)c1
124%

---

# Test system: SW1271 complex spheroids with HUVEC/MSC, growth, % test/control
# experiment-summary: Anticancer human tumor SW1271 cell line growth inhibition [AhR];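 note: spheroids exposed to agents for 7 days before readout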
# assay-context: second compound 10 µM; first compound 0.0316 µM; stronger effect = lower value
assay-metric: viability, T/C (%)
Numeric only. Scale: %

Study these solved cases before continuing.
Which measured viability, T/C value corresponds to CC1COCCN1c1cc(-c2ccnn2C)c2ccnc(-c3ccn[nH]3)c2n1 (stereo not drawn) + Cc1ccccc1N=Nc1ccc(NC(=O)c2ccnn2C)c(C)c1 ?
99.9

# repeat for CC[C@@]1(O)C(=O)OCc2c1cc1n(c2=O)Cc2cc3c(CN(C)C)c(O)ccc3nc2-1 + Cc1ccccc1N=Nc1ccc(NC(=O)c2ccnn2C)c(C)c1
60.8

In the following, a different compound is considered.
Which measured viability, T/C value corresponds to Nc1ccccc1NC(=O)c1ccc(CNC(=O)OCc2cccnc2)cc1 + Cc1ccccc1N=Nc1ccc(NC(=O)c2ccnn2C)c(C)c1 ?
89
